- Species: Rattus norvegicus
- procedure_summary: Delayed onset of labour in rat by comparing with control at 15 mg
- Assay type: functional
For each entry below, report its Activity value.
Enter your answer as a number in h; do not include the unit.

Activity for COCCc1ccc(OCC(O)CNC(C)C(O)c2ccc(O)cc2)cc1.Cl (centres undefined) ?
33.7

Another molecule to check: CC(NCC(O)COc1ccc(CC(N)=O)cc1)C(O)c1ccc(O)cc1.Cl (centres undefined)
31.7

Next record, please: CC(=O)Nc1ccc(OCC(O)CNC(C)C(O)c2ccc(O)cc2)c(C(C)=O)c1.Cl (centres undefined)
30.1

Next molecule up: CC(=O)Nc1ccc(OCC(O)CNC(C)C(O)c2ccc(O)cc2)cc1.Cl (centres undefined)
31.8

====

Kindly supply the reported Activity values for the records listed here.
- Organism: Rattus norvegicus
- procedure_summary: cAmp released in rat at 10 mg
- Assay type: functional

Requested read-out: Activity. Entry: CC(COc1ccccc1)NC(C)C(O)c1ccc(O)cc1.Cl (stereo not given) [ISOXSUPRINE HYDROCHLORIDE]
5.03 pmol

Note, next up: CC(=O)Nc1ccc(OCC(O)CNC(C)C(O)c2ccc(O)cc2)cc1.Cl (stereo not given)
3.48 pmol

How about this compound: CC(=O)Nc1ccc(OCC(O)CNC(C)C(O)c2ccc(O)cc2)c(C(C)=O)c1.Cl (stereo not given)
3.53 pmol

What about COCCc1ccc(OCC(O)CNC(C)C(O)c2ccc(O)cc2)cc1.Cl (stereo not given) ?
3.66 pmol

What would you report for CC(NCC(O)COc1ccc(CC(N)=O)cc1)C(O)c1ccc(O)cc1.Cl (stereo not given) ?
3.56 pmol
